Reference source: the supplement of paper PMC9112550

Test system: Escherichia coli TOP10
experiment.notes: shrunken log2 fold change of peptide-encoding DNA abundance (4.5 h post-induction vs induction); higher = less antimicrobial activity (less host growth inhibition)
cond: time post-induction: 4.5 h; library: site-saturation at positions 5, 18, 19, 20
Respond with label 1 for shrunken log2 fold change values of -0.2 and above, label 0 for values below.

residue.sequence: RRIRERPPRLPRPRPRPCWHPRP
measurement.target: Escherichia coli TOP10
classification: label 0

residue.sequence: RRIRQRPPRLPRPRPRPPDVPRP
measurement.target: Escherichia coli TOP10
classification: label 1

residue.sequence: RRIRRRPPRLPRPRPRPILCPRP
measurement.target: Escherichia coli TOP10
classification: label 1

residue.sequence: RRIRYRPPRLPRPRPRPEKSPRP
measurement.target: Escherichia coli TOP10
classification: label 1

residue.sequence: RRIRQRPPRLPRPRPRPCMSPRP
measurement.target: Escherichia coli TOP10
classification: label 0

residue.sequence: RRIRRRPPRLPRPRPRPFPGPRP
measurement.target: Escherichia coli TOP10
classification: label 1

residue.sequence: RRIRVRPPRLPRPRPRPIYMPRP
measurement.target: Escherichia coli TOP10
classification: label 0

residue.sequence: RRIRTRPPRLPRPRPRPDNYPRP
measurement.target: Escherichia coli TOP10
classification: label 1

residue.sequence: RRIRSRPPRLPRPRPRPPINPRP
measurement.target: Escherichia coli TOP10
classification: label 0

residue.sequence: RRIRLRPPRLPRPRPRPGSSPRP
measurement.target: Escherichia coli TOP10
classification: label 1

residue.sequence: RRIRYRPPRLPRPRPRPTGWPRP
measurement.target: Escherichia coli TOP10
classification: label 1

residue.sequence: RRIRKRPPRLPRPRPRPEPQPRP
measurement.target: Escherichia coli TOP10
classification: label 1

residue.sequence: RRIRLRPPRLPRPRPRPINHPRP
measurement.target: Escherichia coli TOP10
classification: label 0

residue.sequence: RRIRLRPPRLPRPRPRPKHYPRP
measurement.target: Escherichia coli TOP10
classification: label 0

residue.sequence: RRIRCRPPRLPRPRPRPNLPPRP
measurement.target: Escherichia coli TOP10
classification: label 1

* * *

System: Escherichia coli TOP10
experiment.notes: shrunken log2 fold change of peptide-encoding DNA abundance (4.5 h post-induction vs induction); higher = less antimicrobial activity (less host growth inhibition)
cond: time post-induction: 4.5 h; library: site-saturation at positions 5, 18, 19, 20
Listed next: entries and their corresponding shrunken log2 fold change.

residue.sequence: RRIRQRPPRLPRPRPRPFPIPRP
measurement.target: Escherichia coli TOP10
shrunken log2 fold change: -0.0231

residue.sequence: RRIRDRPPRLPRPRPRPTMEPRP
measurement.target: Escherichia coli TOP10
shrunken log2 fold change: 0.335

residue.sequence: RRIRHRPPRLPRPRPRPRGGPRP
measurement.target: Escherichia coli TOP10
shrunken log2 fold change: 0.504

residue.sequence: RRIRIRPPRLPRPRPRPVRGPRP
measurement.target: Escherichia coli TOP10
shrunken log2 fold change: 0.413

residue.sequence: RRIRSRPPRLPRPRPRPFISPRP
measurement.target: Escherichia coli TOP10
shrunken log2 fold change: -0.152

residue.sequence: RRIRERPPRLPRPRPRPRRDPRP
measurement.target: Escherichia coli TOP10
shrunken log2 fold change: 0.0233

residue.sequence: RRIRQRPPRLPRPRPRPNSPPRP
measurement.target: Escherichia coli TOP10
shrunken log2 fold change: -0.0178

residue.sequence: RRIRNRPPRLPRPRPRPRQRPRP
measurement.target: Escherichia coli TOP10
shrunken log2 fold change: 0.215

residue.sequence: RRIRMRPPRLPRPRPRPESKPRP
measurement.target: Escherichia coli TOP10
shrunken log2 fold change: 2.93

residue.sequence: RRIRRRPPRLPRPRPRPWYSPRP
measurement.target: Escherichia coli TOP10
shrunken log2 fold change: -0.0705

residue.sequence: RRIRLRPPRLPRPRPRPHVPPRP
measurement.target: Escherichia coli TOP10
shrunken log2 fold change: 0.0978

residue.sequence: RRIRHRPPRLPRPRPRPWWHPRP
measurement.target: Escherichia coli TOP10
shrunken log2 fold change: -0.113

residue.sequence: RRIRRRPPRLPRPRPRPYTSPRP
measurement.target: Escherichia coli TOP10
shrunken log2 fold change: -0.313

residue.sequence: RRIRIRPPRLPRPRPRPFLTPRP
measurement.target: Escherichia coli TOP10
shrunken log2 fold change: -0.736

residue.sequence: RRIRRRPPRLPRPRPRPNLAPRP
measurement.target: Escherichia coli TOP10
shrunken log2 fold change: 0.176

* * *

Tested on: Escherichia coli TOP10
experiment.notes: shrunken log2 fold change of peptide-encoding DNA abundance (4.5 h post-induction vs induction); higher = less antimicrobial activity (less host growth inhibition)
cond: time post-induction: 4.5 h; library: site-saturation at positions 5, 18, 19, 20
Rule: shrunken log2 fold change under 0.02 gives FALSE, otherwise TRUE.

residue.sequence: RRIRMRPPRLPRPRPRPRKFPRP
classification: TRUE
--
residue.sequence: RRIRMRPPRLPRPRPRPFGKPRP
classification: TRUE
--
residue.sequence: RRIRNRPPRLPRPRPRPNYIPRP
classification: FALSE
--
residue.sequence: RRIRFRPPRLPRPRPRPDPIPRP
classification: TRUE
--
residue.sequence: RRIRQRPPRLPRPRPRPASWPRP
classification: FALSE
--
residue.sequence: RRIRCRPPRLPRPRPRPCDHPRP
classification: TRUE
--
residue.sequence: RRIRIRPPRLPRPRPRPTGDPRP
classification: TRUE
--
residue.sequence: RRIRQRPPRLPRPRPRPLELPRP
classification: TRUE
--
residue.sequence: RRIRNRPPRLPRPRPRPFACPRP
classification: FALSE
--
residue.sequence: RRIRWRPPRLPRPRPRPIMSPRP
classification: FALSE
--
residue.sequence: RRIRSRPPRLPRPRPRPYHFPRP
classification: FALSE
--
residue.sequence: RRIRQRPPRLPRPRPRPYTFPRP
classification: FALSE
--
residue.sequence: RRIRARPPRLPRPRPRPQPTPRP
classification: TRUE
--
residue.sequence: RRIRLRPPRLPRPRPRPTCIPRP
classification: FALSE
--
residue.sequence: RRIRERPPRLPRPRPRPWNEPRP
classification: FALSE
--
residue.sequence: RRIRIRPPRLPRPRPRPPAAPRP
classification: TRUE
--
residue.sequence: RRIRPRPPRLPRPRPRPAFNPRP
classification: FALSE
--
residue.sequence: RRIRTRPPRLPRPRPRPPDLPRP
classification: TRUE
--
residue.sequence: RRIRCRPPRLPRPRPRPVVDPRP
classification: FALSE
--
residue.sequence: RRIRSRPPRLPRPRPRPTFPPRP
classification: TRUE
--
residue.sequence: RRIRSRPPRLPRPRPRPALEPRP
classification: TRUE
--
residue.sequence: RRIRKRPPRLPRPRPRPQTYPRP
classification: FALSE
--
residue.sequence: RRIRWRPPRLPRPRPRPAKSPRP
classification: TRUE
--
residue.sequence: RRIRERPPRLPRPRPRPTVGPRP
classification: FALSE
--
residue.sequence: RRIRQRPPRLPRPRPRPTEFPRP
classification: FALSE
--
residue.sequence: RRIRFRPPRLPRPRPRPTPPPRP
classification: TRUE
--
residue.sequence: RRIRPRPPRLPRPRPRPEAHPRP
classification: TRUE
--
residue.sequence: RRIRKRPPRLPRPRPRPSTPPRP
classification: TRUE
--
residue.sequence: RRIRPRPPRLPRPRPRPQGPPRP
classification: TRUE
--
residue.sequence: RRIRDRPPRLPRPRPRPAPWPRP
classification: TRUE
--
residue.sequence: RRIRHRPPRLPRPRPRPIAPPRP
classification: TRUE
--
residue.sequence: RRIRIRPPRLPRPRPRPTPDPRP
classification: FALSE

* * *

Item-by-item account of shrunken log2 fold change
Tested on: Escherichia coli TOP10;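 further: peptides expressed intracellularly from a pBAD plasmid library in pooled LB shake-flask culture, induced with 0.3% L-arabinose, DNA abundance read by NGS, three biological replicates, DESeq2 with apeglm shrinkage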
experiment.notes: shrunken log2 fold change of peptide-encoding DNA abundance (4.5 h post-induction vs induction); higher = less antimicrobial activity (less host growth inhibition)
cond: time post-induction: 4.5 h; library: site-saturation at positions 5, 18, 19, 20
measurement.name: shrunken log2 fold change

residue.sequence: RRIRYRPPRLPRPRPRPSMRPRP
reported: -0.634

residue.sequence: RRIRPRPPRLPRPRPRPTTTPRP
reported: 0.142

residue.sequence: RRIRLRPPRLPRPRPRPEIVPRP
reported: 0.0118

residue.sequence: RRIRDRPPRLPRPRPRPQQWPRP
reported: 0.0413

residue.sequence: RRIRFRPPRLPRPRPRPKEEPRP
reported: 0.0372

residue.sequence: RRIRDRPPRLPRPRPRPCHPPRP
reported: -0.0697

residue.sequence: RRIRLRPPRLPRPRPRPSMRPRP
reported: 0.421

residue.sequence: RRIRARPPRLPRPRPRPMFIPRP
reported: 0.0587

residue.sequence: RRIRDRPPRLPRPRPRPCFEPRP
reported: 0.708

residue.sequence: RRIRWRPPRLPRPRPRPHTHPRP
reported: -0.268

residue.sequence: RRIRDRPPRLPRPRPRPNFRPRP
reported: 0.267

residue.sequence: RRIRYRPPRLPRPRPRPRIYPRP
reported: -0.569

residue.sequence: RRIRFRPPRLPRPRPRPLRNPRP
reported: 0.514

residue.sequence: RRIRDRPPRLPRPRPRPIYWPRP
reported: 0.202

residue.sequence: RRIRNRPPRLPRPRPRPNCVPRP
reported: 0.393

residue.sequence: RRIRERPPRLPRPRPRPQWQPRP
reported: -0.109

residue.sequence: RRIRDRPPRLPRPRPRPGLWPRP
reported: 1.37

residue.sequence: RRIRTRPPRLPRPRPRPVRYPRP
reported: -0.028

residue.sequence: RRIRVRPPRLPRPRPRPCRSPRP
reported: 0.00156

residue.sequence: RRIRPRPPRLPRPRPRPLSPPRP
reported: -0.113

residue.sequence: RRIRPRPPRLPRPRPRPANFPRP
reported: -0.0737

residue.sequence: RRIRWRPPRLPRPRPRPPGCPRP
reported: 0.975

residue.sequence: RRIRQRPPRLPRPRPRPQRPPRP
reported: 0.0996

residue.sequence: RRIRDRPPRLPRPRPRPYQAPRP
reported: -0.0283

residue.sequence: RRIRLRPPRLPRPRPRPPYMPRP
reported: -0.205

residue.sequence: RRIRNRPPRLPRPRPRPKPEPRP
reported: 0.0739

residue.sequence: RRIRYRPPRLPRPRPRPIRSPRP
reported: -0.214

residue.sequence: RRIRARPPRLPRPRPRPKNTPRP
reported: -0.0664

residue.sequence: RRIRSRPPRLPRPRPRPYVDPRP
reported: -0.594

residue.sequence: RRIRFRPPRLPRPRPRPMNPPRP
reported: -0.0531

residue.sequence: RRIRYRPPRLPRPRPRPYSFPRP
reported: -0.106

residue.sequence: RRIRNRPPRLPRPRPRPISAPRP
reported: -0.0545

residue.sequence: RRIRMRPPRLPRPRPRPLIVPRP
reported: 1.71

residue.sequence: RRIRLRPPRLPRPRPRPSSEPRP
reported: 0.0265

residue.sequence: RRIRNRPPRLPRPRPRPLCQPRP
reported: -0.307

residue.sequence: RRIRVRPPRLPRPRPRPQISPRP
reported: -0.0989

residue.sequence: RRIRQRPPRLPRPRPRPFYEPRP
reported: -0.413

residue.sequence: RRIRFRPPRLPRPRPRPQDFPRP
reported: -0.143

residue.sequence: RRIRQRPPRLPRPRPRPKSVPRP
reported: -0.0026

residue.sequence: RRIRGRPPRLPRPRPRPETPPRP
reported: 3.43

residue.sequence: RRIRPRPPRLPRPRPRPSHEPRP
reported: 0.0992

residue.sequence: RRIRVRPPRLPRPRPRPERYPRP
reported: 0.133

residue.sequence: RRIRSRPPRLPRPRPRPWSWPRP
reported: 0.405

residue.sequence: RRIRSRPPRLPRPRPRPGFHPRP
reported: 0.0792

residue.sequence: RRIRARPPRLPRPRPRPWMYPRP
reported: -0.794

residue.sequence: RRIRQRPPRLPRPRPRPGFMPRP
reported: -0.176

residue.sequence: RRIRKRPPRLPRPRPRPHFFPRP
reported: 0.101

residue.sequence: RRIRQRPPRLPRPRPRPQRWPRP
reported: 0.178

residue.sequence: RRIRTRPPRLPRPRPRPLALPRP
reported: -0.0853

residue.sequence: RRIRARPPRLPRPRPRPHFQPRP
reported: 0.0811

residue.sequence: RRIRQRPPRLPRPRPRPCAMPRP
reported: -0.0872

residue.sequence: RRIRGRPPRLPRPRPRPRSDPRP
reported: 0.555

residue.sequence: RRIRRRPPRLPRPRPRPSKDPRP
reported: 0.0136

residue.sequence: RRIRCRPPRLPRPRPRPAHNPRP
reported: -0.151

residue.sequence: RRIRMRPPRLPRPRPRPDDWPRP
reported: 3.03

residue.sequence: RRIRKRPPRLPRPRPRPIQDPRP
reported: -0.106

residue.sequence: RRIRERPPRLPRPRPRPECAPRP
reported: 0.586

residue.sequence: RRIRNRPPRLPRPRPRPQNEPRP
reported: -0.331

residue.sequence: RRIRKRPPRLPRPRPRPHKSPRP
reported: 0.0371

residue.sequence: RRIRRRPPRLPRPRPRPPMNPRP
reported: 0.172

residue.sequence: RRIRTRPPRLPRPRPRPTPLPRP
reported: 0.147

residue.sequence: RRIRFRPPRLPRPRPRPGTCPRP
reported: -0.161

residue.sequence: RRIRIRPPRLPRPRPRPMDKPRP
reported: -0.448
